target: T1, human CXCR4 receptor (hCXCR4Rho1D4) (Homo sapiens, UniProt P61073); experiment: hCXCR4-Nb co-expression in P. pastoris GS115; anti-Rho1D4 immunoblot of membrane protein, quantified by Odyssey software; type: cell-based; settings: Table 3; corrected for GS115 negative control
T1 construct: expressed in transfected cells; host or cells: Pichia pastoris GS115
T1 sequence (P61073 with tags, fused parts or gaps isoform P61073-2): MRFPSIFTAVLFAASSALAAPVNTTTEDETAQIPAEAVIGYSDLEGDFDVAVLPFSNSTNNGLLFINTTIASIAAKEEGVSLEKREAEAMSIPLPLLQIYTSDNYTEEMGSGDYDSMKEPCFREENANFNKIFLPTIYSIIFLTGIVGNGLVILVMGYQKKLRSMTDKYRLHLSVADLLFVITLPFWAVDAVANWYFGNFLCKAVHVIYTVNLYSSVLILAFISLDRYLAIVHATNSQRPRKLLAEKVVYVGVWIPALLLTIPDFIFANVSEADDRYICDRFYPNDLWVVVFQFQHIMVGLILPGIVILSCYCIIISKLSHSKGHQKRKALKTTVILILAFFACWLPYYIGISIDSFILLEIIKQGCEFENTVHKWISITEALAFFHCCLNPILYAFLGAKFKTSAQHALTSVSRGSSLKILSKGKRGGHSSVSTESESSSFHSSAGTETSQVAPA
The following molecules are shown together with reported Blank corrected values.
Quick note: give the figure in fluorescent units, leave out the unit.

Solved cases (3 shown):
Give me measured Blank corrected, please, for this molecule: NbCA4140: Nanobody directed against the extracellular side of the human CXCR4 receptor, SEQ ID NO:1, His6 tag (protein, listed as Lama glama, His6 tag) VHH: QVQLQESGGGLVQPGGSLRLSCAASGSIFSINAMGWYRQAPGKQRELVAAITSGGSTNYADSVKGRFTISRDNAENTVYLQMNNLKPEDTAVYSCNAEGTSGSSRYRRRYEYWGKGTQVTVSSHHHHHH
36.61

For the molecule NbCA4142: Nanobody directed against the extracellular side of the human CXCR4 receptor, SEQ ID NO:2, His6 tag (protein, listed as Lama glama, His6 tag) VHH: QVQLQESGGGLVRTGGSLRLSCAGSGSFFSINPMGWYRQAPGQQRELVATITGSGSTNYADSVKGRFTISRDNAKNTLYLQMNSLKPEDTAVYYCNAGYFDRIGRRYDRWGQGTQVTVSSHHHHHH , give its measured Blank corrected value.
32.47

Let me know recorded Blank corrected for NbCA4500: Nanobody directed against the extracellular side of the human CXCR4 receptor, SEQ ID NO:4, His6 tag (protein, listed as Lama glama, His6 tag) VHH: QVQLQESGGGLVQAGGSLRLSCAASGSTSGIIAMGWYRQAPGKQRELVARISSGSSTNYADSVKGRFTVSRDNAKNTVYLQMNSLKPEDTAVYYCNAVRRGYRNDYNSWGQGTQVTVSSHHHHHH , thanks.
18.25

Field: next molecule
Tell us which Blank corrected value is on record for NbCA4143: Nanobody directed against the extracellular side of the human CXCR4 receptor, SEQ ID NO:3, His6 tag (protein, listed as Lama glama, His6 tag) VHH: QVQLQESGGGLVQPGGSLRLSCAASGFTFSSYAMSWVRQAPGKGLEWVSTINSGGRSANYADSVKGRLTISRDNAKNTLHLQMNSLKPEDTALYYCARPRSVSRNYVPLGYDYLGQGTQVTVSSHHHHHH
37.72
